- assay info: folding stability dG unfold (combined trypsin and chymotrypsin); higher = more stable
measurement label: folding stability dG unfold (kcal/mol)
Give bare numbers, in kcal/mol.

{"columns": ["residues", "folding stability dG unfold / kcal/mol"],
 "data": [
  ["SAGGPEELAERIAEFARENGYEVDVLSVEELPGDFVRIHMRIRGLSEDEPVFERDAVLVFPPLPGERSAGGS [r8_102_TrMRF]", 3],
  ["SAGEIAEKLGFKVEDVSIQKEDGTYRIVVRFPMDDRPVVIMGDIKVEEKNGKRKIEIDIDIMPLPPDDPSAG [r5_516_TrROS]", 1.7],
  ["SAGGSAMSQEEIENKPIEEIAKAILENFPGNTKVEHEFTFKDGSKLRIVVELPEDGEPKIEAEPIGSAGGSA [r15_857_TrMRF]", -0.452],
  ["SAGGTVKVTVEVRDEETGETVTVEVEVEPAPAPPVVVLPAEDLEKLRELGFPENAVLDEETNELVIFSAGGS [r16_194_TrROS_Hall]", -0.204],
  ["SAGGSAGGSAKVVVDEVEVEVFKNEDGEEVLRVRFKKTGEEVEIPLEDLEKLELPPGAVVEPSAGGSAGGSA [r18_288_TrROS_Hall]", 1.41]
]}

Briefly, folding stability dG unfold measured for SAGGSAGGSKETLTIKIKVEVKDENGEKKEVTVTLTIKAETKEEAEALLKELKEKYPNVKVEPSAGGSAGGS [r12_1043_TrROS_Hall] : 2.93

---

- assay info: folding stability dG unfold from trypsin proteolysis; higher = more stable
Lab note: compare folding stability dG unfold against 2 kcal/mol. Equal or greater, write Condition met. Smaller, write Condition not met.

Example entries and their recorded answers appear below.
{"columns": ["residues", "class name"],
 "data": [
  ["SAENGKWVEVELPIEIWMGNDQLDNFIEEARDIARKHGFEITDIPIKYEPSPDGYRRATIPVKITVPLPSAG [r14_109_TrROS]", "Condition not met"],
  ["SAGGSAGGSAGGGKPVKVIVVEVGGKKVLVTFDEDTGKLTVYNLDTGKTETVTVSPEDLSAGGSAGGSAGGS [r10_669_TrROS_Hall]", "Condition not met"],
  ["SAGGSAGGSAGMKVLVLRIRIERPEEELSEEDRAKLPPVRIEIELVEVELPPEVEVREEESAGGSAGGSAGG [r17_310_TrROS_Hall]", "Condition met"],
  ["SAGGSAGGSAMEELVKEAIKEGKPGEVVLIRNEDGSVFALTVKDGKIEIKKLEEVKEVVEESAGGSAGGSAG [r3_244_TrROS_Hall]", "Condition not met"],
  ["SAGMPETITIKIRNPETGKLYEIEIEKVDGEVKVTIRDVETGKERREITMTPEEVRELLKELGFEVEEVSAG [r5_291_TrROS_Hall]", "Condition not met"],
  ["SAKKKKVKKKEIKVTLKLKLPGAKIKSVKVEKKGDKLVITVEIELENGEKLKLTAVFDKDGKIVKIELESAG [r14_719_TrROS_Hall]", "Condition not met"]
]}

Okay, next one:
Assess whether reported folding stability dG unfold for SAGGMKVTRLPNALVFEYPLPNSTLRIVVTPGDGTYTLELYRDGKLIATFPSPGPVADLVEAAIKALSAGGS [r8_276_TrMRF] sits at 2 kcal/mol or higher.
Condition met
